molecular target: Cytochrome P450 1A2 (Homo sapiens) (UniProt P05177); experiment: Cytochrome panel assay with activity outcomes; conditions: recombinant CYP, pro-luciferin dealkylation, luminescence, p450-cyp1a2; series mostly up to 57.1 µM
Sequence (P05177 whole entry, looked up): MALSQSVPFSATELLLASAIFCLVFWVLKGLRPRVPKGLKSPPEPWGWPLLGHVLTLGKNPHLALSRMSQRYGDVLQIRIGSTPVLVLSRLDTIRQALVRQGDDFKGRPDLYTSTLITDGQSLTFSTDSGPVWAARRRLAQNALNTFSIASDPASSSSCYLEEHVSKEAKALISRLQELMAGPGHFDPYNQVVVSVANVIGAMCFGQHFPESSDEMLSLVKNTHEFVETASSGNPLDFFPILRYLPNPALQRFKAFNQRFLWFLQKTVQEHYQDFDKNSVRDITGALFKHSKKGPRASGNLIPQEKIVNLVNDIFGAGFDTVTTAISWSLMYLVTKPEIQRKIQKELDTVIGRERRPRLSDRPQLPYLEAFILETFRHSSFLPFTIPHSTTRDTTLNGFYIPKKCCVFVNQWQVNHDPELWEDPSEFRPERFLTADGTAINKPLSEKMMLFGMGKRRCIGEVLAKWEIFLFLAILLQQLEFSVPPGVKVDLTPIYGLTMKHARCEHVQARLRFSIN
The whole screen tested about 16,000 compounds, of which about 5,700 (36%) were called active. About 24% were inconclusive and are not listed. Calls come from the whole dose curve; as a rule, active = well fitted curve in the direction sought with a large enough effect; inconclusive = small, poorly fitted or top-dose-only effect, or effect the other way; inactive = no such curve, though single readings can be large or run the other way. This is one part of the list.
Parameter call: string, one of active, inactive

Short answer needed: outcome of this test for CCOC(=O)c1sc(NC(C)=O)nc1-c1ccccc1 ? active

Short answer needed: outcome of this test for C[C@@H]1C[C@@H]2[C@H]3CCC4=CC(=O)C=C[C@]4(C)[C@]3(F)[C@@H](O)C[C@@]2(C)[C@@]1(O)C(=O)CO ? inactive

Short answer needed: outcome of this test for CCCCNCCOCCSc1ccc(Cl)cc1 ? active

Short answer needed: outcome of this test for CCOC(=O)c1c(C)[nH]c2ccc3c(c12)CN1CCc2cc(OC)ccc2[C@@H]1O3 ? active

Short answer needed: outcome of this test for N#Cc1nc(-c2cccs2)oc1NCc1ccccc1 ? active

Short answer needed: outcome of this test for COc1cccc(Cn2c(=O)c(-c3cn(C)c4ccccc34)nc3cncnc32)c1 ? active

Short answer needed: outcome of this test for CCCCNC(=O)NS(=O)(=O)c1cnccc1Sc1ccc(Cl)cc1 ? inactive

Short answer needed: outcome of this test for CNc1oc(-c2cccs2)nc1C#N ? active

Short answer needed: outcome of this test for O=C(O)Cc1ccc(NC(=O)C2CCCCC2C(=O)O)cc1 (configuration not stated) ? inactive

Short answer needed: outcome of this test for CN(c1ccccc1)c1nc(-n2ccnc2)nc(-n2ccnc2)n1 ? active

Short answer needed: outcome of this test for CCOC(=O)CSc1cc(C(F)(F)F)nc(-c2ccccn2)n1 ? active

Short answer needed: outcome of this test for NC(N)=NC[C@@H]1COC2(CCCCC2)O1 ? inactive

Short answer needed: outcome of this test for COc1ccc(NC(=O)COc2ccc(CNCCCN3CCOCC3)cc2OC)cc1 ? inactive

Short answer needed: outcome of this test for COc1ccc(C[C@@](C)(N)C(=O)O)cc1OC ? inactive

Short answer needed: outcome of this test for O=C(O)C1CCC(=O)N(C2CC2)C1c1ccccc1 (configuration not stated) ? inactive

Short answer needed: outcome of this test for CCOC(=O)Oc1c(OC)cc(C(=O)O[C@H]2C[C@H]3CN4CCc5c([nH]c6cc(OC)ccc56)[C@@H]4C[C@H]3[C@@H](C(=O)OC)[C@@H]2OC)cc1OC ? inactive

Short answer needed: outcome of this test for Cc1ccc(C)c(Cn2c(C(=O)OC(C)C)cc3c2ccn3C)c1 ? active

Short answer needed: outcome of this test for Cn1cc(-c2nc3cncnc3n(CCN)c2=O)c2ccccc21 ? active

Short answer needed: outcome of this test for N=C(N)c1ccc(N=Nc2c(O)ccc3c2[nH]c2ccccc23)cc1 ? active

Short answer needed: outcome of this test for COc1ccc(C(=O)NCC(c2ccc(F)cc2)N2CCOCC2)cc1S(=O)(=O)N1CCCC1 (configuration not stated) ? active

Short answer needed: outcome of this test for Nc1ncnc2c1ncn2[C@@H]1CCCO1 ? inactive

Short answer needed: outcome of this test for COCCn1c(=O)c(-c2cn(C)c3ccccc23)nc2cnc(OCc3ccccc3)nc21 ? active

----------
target: Cytochrome P450 1A2 (Homo sapiens); experiment: Cytochrome panel assay with activity outcomes; details: recombinant CYP, pro-luciferin dealkylation, luminescence, p450-cyp1a2; series mostly up to 57.1 µM
The campaign covered roughly 16,000 compounds. About 5,700 (36%) were called active. Roughly 24% stayed inconclusive and do not appear here. The call rests on the fitted dose curve; in most records, active means well fitted curve in the direction sought with a large enough effect; inconclusive means small, poorly fitted or top-dose-only effect, or effect the other way; inactive means no such curve, though single readings can be large or run the other way. This is one part of the list.
Parameter call: string, one of active, inactive

Short answer needed: outcome of this test for Cc1ccc(C2/C(=C(/O)c3ccc(Cl)cc3)C(=O)C(=O)N2CC2CCCO2)o1 (centres undefined) ? inactive

Short answer needed: outcome of this test for CCOC(=O)Nc1ccc(C(=O)Oc2ccccc2)c(O)c1 ? active

Short answer needed: outcome of this test for Cc1ccc(N(CCC#N)C(=O)CSc2ccc3c(c2)OCCO3)cc1 ? active

Short answer needed: outcome of this test for c1nc(NC2CCNCC2)c2cc(-c3ccc4c(c3)OCO4)ccc2n1 ? active

Short answer needed: outcome of this test for Cc1cc(NC(=O)c2c([N+](=O)[O-])cnn2C)no1 ? inactive

Short answer needed: outcome of this test for CC(=O)Nc1ccc2c(c1)OCCO2 ? active

Short answer needed: outcome of this test for c1nc(NC2CC2)c2cc(-c3ccoc3)ccc2n1 ? active

Short answer needed: outcome of this test for CC(O)(CS(=O)(=O)Cc1ccc(Cl)cc1)C(=O)Nc1cccc(C(F)(F)F)c1 (centres undefined) ? inactive

Short answer needed: outcome of this test for CC(C)(C)c1nc(SCC(=O)Nc2ccc(N3CCOCC3)cc2)c2ccccc2n1 ? inactive

Short answer needed: outcome of this test for COc1ccc(C(=O)N2CCC[C@@]3(CCN(Cc4ccc(C#N)cc4)C3)C2)cc1 ? inactive

Short answer needed: outcome of this test for CC(=O)N[C@@H](C(=O)O)C(C)(C)SN=O ? inactive

Short answer needed: outcome of this test for Cc1cc2ccccn2c1C(=O)c1nc(N2CCOCC2)ncc1Cl ? active

Short answer needed: outcome of this test for O=C(CC1C(=O)NCCN1C(=S)Nc1ccccc1)Nc1ccc2c(c1)OCCO2 (centres undefined) ? inactive

Short answer needed: outcome of this test for Cc1[nH]nc(-c2ccc(O)cc2O)c1-c1ccc(Cl)cc1 ? active

Short answer needed: outcome of this test for Cc1[nH]nc(N2CCCCCC2)c1[N+](=O)[O-] ? active

Short answer needed: outcome of this test for O=C1CC(c2ccc3c(c2)OCO3)CN1 (centres undefined) ? active

Short answer needed: outcome of this test for O=C(Nc1cccc(C(F)(F)F)c1)N(Cc1ccc(Cl)cc1)CC(O)C(F)(F)F (centres undefined) ? active

Short answer needed: outcome of this test for COC(=O)c1ccc(CSc2nc3cc(Cl)ccc3s2)o1 ? active

Short answer needed: outcome of this test for CCOc1cc(/C=N/NC(=O)c2cc(C)[nH]n2)ccc1OC(=O)c1ccc([N+](=O)[O-])cc1 ? inactive

Short answer needed: outcome of this test for Oc1ccc(-c2[nH]ncc2-c2ccc(Cl)cc2)c(O)c1 ? active

Short answer needed: outcome of this test for CN(C)c1ccc(-c2ccc3ncnc(NC4CC4)c3c2)cc1 ? active

Short answer needed: outcome of this test for NC(=O)CN1CCOCCOCCOCCOCCOCC1 ? inactive

Short answer needed: outcome of this test for Cn1ncc([N+](=O)[O-])c1C(=O)Nc1ccc2c(c1)OCCO2 ? active

Short answer needed: outcome of this test for CCC(C)NCc1ccc(C(=O)OC)o1 (centres undefined) ? inactive

----------
biological target: Cytochrome P450 1A2 (Homo sapiens); test: Cytochrome panel assay with activity outcomes; details: recombinant CYP, pro-luciferin dealkylation, luminescence, p450-cyp1a2; series mostly up to 57.1 µM
The campaign covered roughly 16,000 compounds. About 5,700 (36%) were called active. Inconclusive results (about 24%) are left out. The call rests on the fitted dose curve; in most records, active means well fitted curve in the direction sought with a large enough effect; inconclusive means small, poorly fitted or top-dose-only effect, or effect the other way; inactive means no such curve, though single readings can be large or run the other way. The list shows a part of the results.
Parameter call: string, one of label 1 for active, label 0 for inactive

Short answer needed: outcome of this test for Cc1ccc(/C=C/C(=O)N2CC(C)CC(C)C2)o1 (stereo unspecified) ? label 1

Short answer needed: outcome of this test for N#Cc1cccc(-c2nc(NCc3ccccc3)c3ccccc3n2)c1 ? label 1

Short answer needed: outcome of this test for Cc1ccc(NC(=O)CN2C(=O)N/C(=C/c3ccc(C)o3)C2=O)cc1 ? label 0

Short answer needed: outcome of this test for O=c1c(-c2nnc(SCc3ccc(Cl)c(Cl)c3)o2)cccn1Cc1ccccc1 ? label 0

Short answer needed: outcome of this test for c1ccc(CSc2nnc(-c3sccc3-n3cccc3)o2)cc1 ? label 1

Short answer needed: outcome of this test for Clc1ccc(CSc2nnc(-c3sccc3-n3cccc3)o2)cc1 ? label 1

----------
Biological target: Cytochrome P450 1A2 (Homo sapiens)
Assay: Cytochrome panel assay with activity outcomes
Details: recombinant CYP, pro-luciferin dealkylation, luminescence, p450-cyp1a2; series mostly up to 57.1 µM
Protocol: The P450 gene superfamily is involved in the metabolism and clearance of xenobiotics. This assay used various human CYP P450 isozymes to measure the dealkylation of various pro-luciferin substrates to luciferin. The luciferin is then measured by luminescence after the addition of a luciferase detection reagent. […] Inhibitors and some substrates limit the production of luciferin, and decrease measured luminescence. […] 8, Detection, 1 sec, ViewLux luminescent read […]
Among all 16,000 compounds or so, about 5,700 (36%) were called active. Not shown: some 24% with an inconclusive outcome. The call rests on the fitted dose curve; in most records, active means well fitted curve in the direction sought with a large enough effect; inconclusive means small, poorly fitted or top-dose-only effect, or effect the other way; inactive means no such curve, though single readings can be large or run the other way. This is one part of the list.
Parameter call: string, one of active, inactive

Short answer needed: outcome of this test for O=c1c2c(-c3cccs3)csc2ncn1-c1ccc(Br)cc1 ? active

Short answer needed: outcome of this test for CCNC(=S)N1CCC(NC(=O)C2CCCCC2)CC1 ? inactive

Short answer needed: outcome of this test for CC(=O)NN1C(=O)c2ccc(Oc3cccc([N+](=O)[O-])c3)cc2C1=O ? inactive

Short answer needed: outcome of this test for COc1ccc(C(=O)/C=C2/c3ccccc3CC(C)(C)N2C)cc1 ? active

Short answer needed: outcome of this test for CC(C)CCNC(=S)NC1CCCC1 ? active

Short answer needed: outcome of this test for Cn1c(=O)cc(OCCCC(=O)Nc2cccnc2)c2ccccc21 ? active
